Here we list compounds with their recorded Ki when tested on Adenosine receptor A3 (Mus musculus).
Sequence (Q61618 whole entry): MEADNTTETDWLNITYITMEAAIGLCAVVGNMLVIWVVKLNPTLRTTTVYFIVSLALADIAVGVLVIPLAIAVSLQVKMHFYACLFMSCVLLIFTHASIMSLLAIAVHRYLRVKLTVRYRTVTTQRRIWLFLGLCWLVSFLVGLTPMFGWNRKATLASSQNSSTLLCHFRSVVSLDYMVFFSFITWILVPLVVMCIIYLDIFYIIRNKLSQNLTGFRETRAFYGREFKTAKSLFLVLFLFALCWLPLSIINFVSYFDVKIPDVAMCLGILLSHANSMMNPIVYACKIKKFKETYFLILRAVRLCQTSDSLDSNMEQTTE
Give the quantity in nM, number only.

Inquiry: Which Ki is reported for this compound? CNC(=O)[C@@]12C[C@@H]1[C@@H](n1cnc3c(NCCc4ccc(O)c(OC)c4)nc(C#Cc4ccccc4)nc31)[C@H](O)[C@@H]2O
Reply text: 1.54

***
Inquiry: Which Ki is reported for this compound? CNC(=O)[C@@]12C[C@@H]1[C@@H](n1cnc3c(NCCc4ccc(OC)c(O)c4)nc(C#Cc4ccc(Cl)s4)nc31)[C@H](O)[C@@H]2O
Reply text: 1.7

Inquiry: Cool, now CNC(=O)[C@@]12C[C@@H]1[C@@H](n1cnc3c(NCCc4ccc(O)c(O)c4)nc(C#Cc4ccc(Cl)s4)nc31)[C@H](O)[C@@H]2O
Reply text: 0.91
